Reference source for all entries: PubChem BioAssay

The following molecules are shown together with reported inhibition values.
TEST_DETAILS: inhibitors of Sendai virus-induced IRF3 signaling, primary screen, TLR/RLR signaling modifier project, cell-based, Sendai virus stimulus, luciferase, 10K MLSCN set (AID 602276);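 further: firefly luciferase from ISG56 promoter only with Renilla not read in this screen; 0% = Sendai virus plus DMSO and 100% = medium plus DMSO without virus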
STUDY_CONDITIONS: HEK293 RL24 IRF3 luciferase reporter, at 10 µM, active compounds read high
API: value field is a number in %; no unit string.

Quick note, inhibition for "Brc1ccc2[nH]c3nc(SCCN4CCOCC4)nnc3c2c1" landed at -18.9

====

TEST_DETAILS: inhibitors of TNFa-induced NFkB p65 translocation, primary screen, imaging, HUVEC, MLSMR starter and 10KST1 sets (AID 438);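 further: compound added about 3h40 before a 20 min TNFalpha stimulation; signal is the nuclear over cytoplasmic p65 intensity ratio per well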
STUDY_CONDITIONS: HUVEC TNFa-induced p65 nuclear translocation; at 2 µM, active compounds read high, 0% TNFa-plus-vehicle, 100% no-TNFa wells
The following compounds are shown together with reported inhibition values.
API: value field is a number in %; no unit string.

Sample answers from the record:
>  <COMPOUND>
c1ccc(CCn2nnnc2C(c2cccs2)N2CCOCC2)cc1 (centres undefined)

>  <MEASURED_METRIC>
inhibition

>  <RECORDED_VALUE>
-8.6

$$$$
>  <COMPOUND>
CCS(=O)(=O)N1CCCC(C(=O)NCc2cccc(OC)c2)C1 (centres undefined)

>  <MEASURED_METRIC>
inhibition

>  <RECORDED_VALUE>
-5.5

$$$$
>  <COMPOUND>
CCC(C(=O)Nc1nccs1)(C(F)(F)F)C(F)(F)F

>  <MEASURED_METRIC>
inhibition

>  <RECORDED_VALUE>
-18.9

$$$$
>  <COMPOUND>
CCNc1sc(C(=O)c2cccs2)c(N)c1C#N

>  <MEASURED_METRIC>
inhibition

>  <RECORDED_VALUE>
0.3

$$$$
>  <COMPOUND>
CCOc1ccccc1OCC(=O)Nc1nnc(COC)s1

>  <MEASURED_METRIC>
inhibition

>  <RECORDED_VALUE>
2.9

$$$$

Quick note, inhibition for N#C/C(C(=O)NCc1ccco1)=C1/SC(Cc2ccc(Cl)cc2)C(=O)N1c1ccccc1 (centres undefined) landed at -0.2

Quick note, inhibition for "CCOC(=O)N1CCN(C(=O)CSc2ncnc3ccccc23)CC1" landed at -1.6

Quick note, inhibition for "COc1ccc(NC(=O)N2CCN(c3nc(-c4cccc(OC)c4)cs3)CC2)cc1" landed at -7.5

Quick note, inhibition for "CC(C)OCCCNc1ncnc2c1cnn2-c1ccccc1" landed at -10.1
